Each record here notes measured AUC: exposure, AUCinf.
- Cond: mouse, in vivo; further: test concentration or dose not given here
Metric Name: AUC: exposure, AUCinf (µg·h/mL)

{"columns": ["Compound", "Unit String", "Test Result"],
 "data": [
  ["COc1cc(C(O)(CCN(C)C)C(c2cc3cc(Br)ccc3nc2OC)c2ccnc(OC)c2OC)cnc1OC (stereo not shown)", "µg·h/mL", 4.28],
  ["COc1cccc(C(c2cc3cc(Br)ccc3nc2OC)C(O)(CCN(C)C)c2cc(C)cnc2C)c1OC (stereo not shown)", "µg·h/mL", 1.39],
  ["COc1cccc(C(c2cc3cc(C#N)ccc3nc2OC)C(O)(CCN(C)C)c2cc(C)nc(C)c2)c1F (stereo not shown)", "µg·h/mL", 0.35],
  ["COc1nc2ccc(Br)cc2cc1C(c1cccc2c1OCO2)C(O)(CCN(C)C)c1cccnc1OC (stereo not shown)", "µg·h/mL", 3.78],
  ["COc1nc2ccc(Br)cc2cc1C(c1cccc2c1OCO2)C(O)(CCN(C)C)c1cccnc1C (stereo not shown)", "µg·h/mL", 0.82],
  ["COc1nc2ccc(C#N)cc2cc1C(c1cccc(C)c1)C(O)(CCN(C)C)c1cccnc1OC (stereo not shown)", "µg·h/mL", 1.17],
  ["COc1cccc(C(O)(CCN(C)C)C(c2cc3cc(Br)ccc3nc2OC)c2cccc3c2OCO3)n1 (stereo not shown)", "µg·h/mL", 5.60],
  ["COc1nc2ccc(Br)cc2cc1C(c1cccc(C)c1)C(O)(CCN(C)C)c1cccnc1OC (stereo not shown)", "µg·h/mL", 2.51],
  ["COc1cccc(C(c2cc3cc(Br)ccc3nc2OC)C(O)(CCN(C)C)c2ccc(C)nc2)c1F (stereo not shown)", "µg·h/mL", 0.25],
  ["COc1cc(C(O)(CCN(C)C)C(c2cc3cc(Br)ccc3nc2OC)c2ccnc(OC)c2OC)c(OC)nc1OC (stereo not shown)", "µg·h/mL", 9.13]
]}
